The measured values listed here are drawn from patent US20100260805A1.

- EXPERIMENTAL SYSTEM: T1, DQA1*0102/DQB1*0602 (human, UniProt P01920 33-230, limits assumed)
- T1 construct: human MHC class II allotype
- T1 MHC II alpha: not shown
- T1 MHC II beta: not shown
- MEASUREMENT NOTES: competitive MHC class II binding assay; competitor: control peptide Human Insulin B 1-15
MEASUREMENT LABEL: ratio of IC50 to that of the control peptide (ratio)
Express your answer in ratio, writing the number without its unit.

Answered cases to consult:
RNQSLDLAEQELVDCASQH [HDM03C]    0.16
DGLEVDVPGIDPNACH (purity 66.7%) [HDM23A]    0.76
DTVRAEMTKVLAP [HDM49]    1.7
RTVTPIRMQGGCG [HDM02]    0.03
DGVLACAIATHAKIR [HDM26A]    0.61
RYVAREQSCRRPN [HDM06]    0.86

For HDDVVSMEYDLAYKL [HDM39A] , what is its reported ratio of IC50 to that of the control peptide?
0.1
